- SYSTEM: Gn of RVFV-ZH501 (Rift Valley Fever Virus strain ZH501)
- RUN DESCRIPTION: cell-based or functional assay
ATTRIBUTE MEASURED: Fold-Change ZH501/MP-12 (ratio of neutralization IC50s) (fold)
Give the value, in units of fold, as a plain number.

Sample records with Fold-Change ZH501/MP-12 (ratio of neutralization IC50s):
>>> value_observed("RVFV-436 (antibody, V domains shown) VH: QVQLHESGPGLVKPSETLSLTCGVSGYTISSDYYWGWIRQPPGKGLEWIGSIYQNGHTYYNPSLKSRVTISVDTSKNQFSLELSSVTAADTAVYYCARRGDCGADCYHFDYWGRGTAVTVSS VL: SYEVTQPLSVSVSPGQTASITCSGEKLENKYVSWYQQKPGQSPVLVMYQDFKRPSGIPERFSGSNSGNTATLTISGTQAMDEADYYCQAWDRSTFYVFGTGTKVTVVG")
1.8
>>> value_observed("RVFV-381 (antibody, V domains shown) VH: QEQLVESGGGVVQPGRSLRLSCAASGFTLRGYGIYWVRQAPGKGLEWVAVISHDGKNESYTDSVKGRFSISRDKSKNTVFLQMNSLTTQDTSVYYCARWTEGSEEFYYHGLDVWGQGTTVTVSP VL: SYELTQPPSVSVSPGQTARITCSGHLLPKQYAYWYQQKPGQAPTLVIYADYNRASGIPERFSGASSGTTVTLTITGVKAEDQADYYCQSIDNRFHYPMIFGGGTKLTVL")
2.3

Q. Item RVFV-426 (antibody, V domains shown) VH: QVQLQESGPGLLKPSQTLSLTCGVSGDSITSTGDSWTWIRQPPGKGLEWIGYIYYSGSAYYNPSLKSRVTISVDTSKNQFSLRLRSVTAADTAVYYCARALEYGAGSWAAAFWGQGILVTVSS VL: SYEVTQPPSVSVSPGQTASITCSGDKLVERYVSWYQQKPGQSPLLVIYHDIKRPSGIPERFSGSNSGNTATLTISGTQPMDEADYYCQAWDSSTVLFGGGTKLTVL : provide Fold-Change ZH501/MP-12 (ratio of neutralization IC50s)
A. 4.5

Sourced from patent US12703739
